Assay: Solubility
Format: physicochemical
Settings: read-out: Solubility
Items are presented alongside their recorded Solubility.
Report as a plain number; the unit mM is understood.

Use these answered entries as a reference point.
Query: Which Solubility value belongs to "CN(Cc1cccc2ncccc12)C(=O)c1cccc(OC2CCN(C(=O)C3CC3)CC2)c1" ?
Response: 12.5

Query: Entry CCOC(=O)C1C2C=CC(C2)C1CNC(=O)c1ccc(OC2CCN(C(=O)C3CC3)CC2)cc1 (centres unmarked) please
Response: 12.5

Query: Entry "O=C(Nc1ccc2ccccc2c1)c1cccc(OC2CCN(C(=O)C3CC3)CC2)c1" please
Response: 12.5

Query: Entry O=C(NCCC1CC2C=CC1C2)c1cccc(OC2CCN(C(=O)CCc3ccc(Cl)cc3)CC2)c1 (centres unmarked) please
Response: 6.25

Now examine the next entry.
Query: Which Solubility value belongs to CCCCC(=O)N1CCC(Oc2cccc(C(=O)NCCC3CC4C=CC3C4)c2)CC1 (centres unmarked) ?
Response: 12.5
